Assay: E. coli growth modulation, two-sided OD650, primary screen, E. coli filamentation project, strain DRC41, 24 h (AID 1093);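 also: MC1000 strain lacking acrAB efflux and sulA so SOS filamentation is blocked; test concentration not given here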
Details: OD650, 24 h, higher = more signal, called active from +8 up or from −8 down
The source made the active and inactive calls.
Experimental Readout: z-score

molecule=C=C(COC)/C(=C/C[C@@H](OC(C)=O)c1cccc(OCCO)c1)c1cc(C(=O)OC)ccc1OC result="1.09 (inactive)"
molecule=COc1cc(CO)cc(I)c1O[C@H]1C=C(C(=O)NCCO)C[C@@H](NCCc2c[nH]c3ccccc23)[C@@H]1O result="2.12 (inactive)"
molecule=CC(C)CNC(=O)[C@@]1(C)c2ccccc2C(=O)N(Cc2ccc(OC(F)(F)F)cc2)[C@H]1c1ccc(CO)cc1 result="1.52 (inactive)"
molecule=COCCCNC(=O)[C@@H]1c2ccccc2C(=O)N(CC23CC4CC(CC(C4)C2)C3)[C@H]1c1ccc(CO)cc1 result="-0.494 (inactive)"
molecule=O=C(NCC(F)(F)F)[C@@H]1c2ccccc2C(=O)N(Cc2ccccc2Cl)[C@H]1c1ccc(CO)cc1 result="0.939 (inactive)"
molecule=CC(=O)NCCCC[C@@H]1NC(=O)[C@@H]2C[C@H](C(=O)NCCCCCCN(C)C)[C@H](c3ccc(O)cc3)N2C1=O result="1.02 (inactive)"
molecule=O=C(N1CCCCC1)[C@@]1(CCS(=O)(=O)c2ccccc2)N=C(c2ccc(OCCCO)cc2)O[C@H]1c1ccccc1 result="0.943 (inactive)"
molecule=COCCOC(=O)N1C(=O)[C@@]2(c3cc(C#CC4=CCCCC4)ccc31)[C@H](c1ccc(O)cc1)N1[C@H](c3ccccc3)[C@H](c3ccccc3)OC(=O)[C@H]1[C@@H]2C(=O)N1CCCCCCC1 result="2.01 (inactive)"
molecule=COc1ccc([Si](C)(C)[C@H]2[C@H](CCO)O[C@@]3(C(=O)N(Cc4ccccc4)c4ccc(N5C(=O)c6cccc7cccc5c67)cc43)[C@@H]2C)cc1 result="1.97 (inactive)"
molecule=CC(=O)NCCCC[C@@H]1NC(=O)[C@@H]2C[C@H](C(=O)NCCCCCNC(=O)CS)[C@H](c3ccc(O)cc3)N2C1=O result="2.99 (inactive)"
molecule=O=C1O[C@@H](c2ccccc2)[C@@H](c2ccccc2)N2[C@@H](c3ccc(O)cc3)[C@]3(C(=O)Nc4ccccc43)[C@@H](C(=O)N3CCN(c4ncccn4)CC3)[C@H]12 result="3.16 (inactive)"
molecule=O=C1O[C@H](c2ccccc2)[C@H](c2ccccc2)N2[C@H]1[C@@H](C(=O)NC[C@H](O)c1ccccc1)[C@]1(C(=O)Nc3ccc(C#CC4(O)CCCCCC4)cc31)[C@H]2c1ccc(OCCO)cc1 result="3.35 (inactive)"
molecule="CC1CC/C=C\\[C@H]2OC34C=CCN(Cn5nnc6ccccc65)C(=O)[C@H]3N(C(C)CO)C(=O)[C@@H]4C2C(=O)O1 (some centres undefined)" result="-0.224 (inactive)"
molecule=Cc1ccc(S(=O)(=O)N2[C@@H](c3ccccc3)C(C(=O)O)=CC[C@H]2c2ccccc2)cc1 result="-1.76 (inactive)"

###

Experiment: E. coli growth modulation, two-sided OD650, primary screen, E. coli filamentation project, strain DRC41, 24 h (AID 1093);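 also: MC1000 strain lacking acrAB efflux and sulA so SOS filamentation is blocked; test concentration not given here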
Conditions: OD650, 24 h, higher = more signal, called active from +8 up or from −8 down
Experimental Readout: z-score

molecule=O=C/C=C/c1ccccc1Cl experimental_readout=z-score numeric_readout=0.0791
molecule=CCCC=C(CCC)[C@@H](NC(=O)c1ccccc1)c1ccccc1 experimental_readout=z-score numeric_readout=-0.494
molecule="O=C1OCCC=C[C@H]2OC34C=CCN(Cc5ccccc5)C(=O)[C@H]3N(CCO)C(=O)[C@@H]4C12 (stereo partly drawn)" experimental_readout=z-score numeric_readout=2.71
molecule=[N-]=[N+]=NCc1ccccc1[C@H]1OC(c2ccc(OCCCO)cc2)=N[C@@]1(Cc1ccccc1N=[N+]=[N-])C(=O)NCc1ccccc1 experimental_readout=z-score numeric_readout=0.0275
molecule=COc1cc2c(cc1OC)CN(C(=O)[C@@H]1[C@H]3C(=O)O[C@H](c4ccccc4)[C@H](c4ccccc4)N3[C@H](c3ccccc3OCCO)[C@@]13C(=O)Nc1ccccc13)CC2 experimental_readout=z-score numeric_readout=1.92
molecule=NC(=O)[C@H]1[C@@H]2C(=O)O[C@@H](c3ccccc3)[C@@H](c3ccccc3)N2[C@@H](c2ccc(O)cc2)[C@]12C(=O)Nc1ccc(C#CCCO)cc12 experimental_readout=z-score numeric_readout=0.0528
molecule=CCOC(=O)C[C@H]1[C@H](OC(=O)c2ccccc2-c2ccccc2)[C@@H](NC(=O)c2ccc(-c3ccccc3)cc2)c2cc(OCCCO)ccc2N1C(=O)Cc1ccc(OC)cc1 experimental_readout=z-score numeric_readout=-0.857
molecule="N#Cc1ccc(NN2C(C(O)CCc3ccccc3)C=CC3C(=O)N(c4ccccc4)C(=O)C32)cc1 (stereo not drawn)" experimental_readout=z-score numeric_readout=-1.11
